- target.under.test: T1, similar peptide SP-05-0003, source protein not stated peptide on HLA-A*02:01 (human)
- T1 peptide: KVTEMLVNV
- assay.protocol: killing
quantity.name: binding result

- binder: "TCR-6 (TCR, V domains shown) Valpha: QKEVEQDPGPLSVPEGAIVSLNCTYSNSAFQYFMWYRQYSRKGPELLMYTYSSGNKEDGRFTAQVDKSSKYISLFIRDSQPSDSATYLCAMSGNSGARDYGNNRLAFGKGNQVVVIP Vbeta: EVTQTPKHLVMGMTNKKSLKCEQHMGHRAMYWYKQKAKKPPELMFVYSYEKLSINESVPSRFSPECPNSSLLNLHLHALQPEDSALYLCASATWEEAGPYNEQFFGPGTRLTVL"
  reported: "no recognition"
- binder: "TCR-9 (TCR, V domains shown) Valpha: EDVEQSLFLSVREGDSSVINCTYTDSSSTYLYWYKQEPGAGLQLLTYIFSNMDMKQDQRLTVLLNKKDKHLSLRIADTQTGDSAIYFCAEKETAGNKLTFGGGTRVLVKP Vbeta: EPEVTQTPSHQVTQMGQEVILRCVPISNHLYFYWYRQILGQKVEFLVSFYNNEISEKSEIFDDQFSVERPDGSNFTLKIRSTKLEDSAMYFCASTVQSPRTNEQFFGPGTRLTVL"
  reported: "no recognition"
